Tested on: BGC823 cell line
PROTOCOL DESCRIPTION: MTT test of inhibiting tumor cell activity, BGC823
SETTINGS: read-out: Cytotoxic activity (IC50, μM) BGC823; BGC823 cells, MTT, 48 h cultivation
I'd be grateful if you could share measured IC50 for these entries.
Give bare numbers, in µM.

COMPOUND	IC50 [µM]
CCc1ccc([N+](=O)[O-])cc1NC1c2cc3c(cc2C(c2cc(OC)c(OC)c(OC)c2)C2C(=O)OCC12)OCO3 (stereo not shown)	4.24
COc1cc(C2c3cc4c(cc3C(Nc3ccccc3C(F)(F)F)C3COC(=O)C23)OCO4)cc(OC)c1O (stereo not shown)	6.01
COc1cc(C2c3cc4c(cc3C(O)C3COC(=O)C23)OCO4)cc(OC)c1O (stereo not shown) [4′-demethylepipodophyllotoxin, reference compound]	63

Give one value of IC50 per listed compound.
1. COc1ccc(NC2c3cc4c(cc3C(c3cc(OC)c(O)c(OC)c3)C3C(=O)OCC23)OCO4)cc1F (stereo not shown)
2. COc1cc(C2c3cc4c(cc3C(Nc3cccc(S(=O)(=O)N(C)C)c3)C3COC(=O)C23)OCO4)cc(OC)c1O (stereo not shown)
3. COc1cc(C2c3cc4c(cc3C(Nc3cc(Cl)c(O)c(Cl)c3)C3COC(=O)C23)OCO4)cc(OC)c1O (stereo not shown)
4. COc1ccccc1NC1c2cc3c(cc2C(c2cc(OC)c(OC)c(OC)c2)C2C(=O)OCC12)OCO3 (stereo not shown)

Result:
0.4
1.52
13.8
6.26

Give one value of IC50 per listed compound.
1. COc1ccccc1NC1c2cc3c(cc2C(c2cc(OC)c(O)c(OC)c2)C2C(=O)OCC12)OCO3 (stereo not shown)
2. COc1cc(C2c3cc4c(cc3C(Nc3ccc(Cc5ccc(N)cc5)cc3)C3COC(=O)C23)OCO4)cc(OC)c1O (stereo not shown)

Result:
1: 5.63; 2: 3.52

###

System: BGC823 cell line
PROTOCOL DESCRIPTION: MTT test of inhibiting tumor cell activity, BGC823
SETTINGS: read-out: Cytotoxic activity (IC50, μM) BGC823; BGC823 cells, MTT, 48 h cultivation
Please use True for IC50 under 3 µM and False for everything else, ties included.

Ask: Item COc1cc(C2c3cc4c(cc3C(Nc3ccccc3C#N)C3COC(=O)C23)OCO4)cc(OC)c1O (stereo not drawn) [Compound 12] : IC50 beneath 3 µM, strictly?
Result: False

Ask: Item COc1cc(C2c3cc4c(cc3C(Nc3ccc(Cc5ccc(N)cc5)cc3)C3COC(=O)C23)OCO4)cc(OC)c1OC (stereo not drawn) [Compound 5] : IC50 beneath 3 µM, strictly?
Result: False

Ask: Item COc1cc(C2c3cc4c(cc3C(Nc3cc(Cl)c(O)c(Cl)c3)C3COC(=O)C23)OCO4)cc(OC)c1OC (stereo not drawn) [Compound 13] : IC50 beneath 3 µM, strictly?
Result: True

Ask: Item COc1ccc(Cl)cc1NC1c2cc3c(cc2C(c2cc(OC)c(O)c(OC)c2)C2C(=O)OCC12)OCO3 (stereo not drawn) [Compound 10] : IC50 beneath 3 µM, strictly?
Result: True

Ask: Item COc1ccc(NC2c3cc4c(cc3C(c3cc(OC)c(OC)c(OC)c3)C3C(=O)OCC23)OCO4)cc1F (stereo not drawn) [Compound 3] : IC50 beneath 3 µM, strictly?
Result: False

Ask: Item COc1cc([C@@H]2c3cc4c(cc3[C@@H](O[C@@H]3O[C@@H]5CO[C@@H](C)O[C@H]5[C@H](O)[C@H]3O)[C@H]3COC(=O)[C@H]23)OCO4)cc(OC)c1O [VP-16, etoposide, reference compound] : IC50 beneath 3 µM, strictly?
Result: False

Origin of the recorded values: patent US9714254B2
